The measured values listed here are drawn from patent US20230408517A1.

Can you tell me percent blocking for the items I'm about to list?
- experimental.target: T1, recombinant monomeric SARS-CoV-2 S1 protein, his-tagged (SARS-CoV-2, UniProt P0DTC2 16-681)
- T1 construct: domain: S1
- test.name: flow cytometry, blocking of binding to hACE-2 cells

What value of percent blocking has been reported for the following binder? 1035755 (antibody, V domains shown) VH: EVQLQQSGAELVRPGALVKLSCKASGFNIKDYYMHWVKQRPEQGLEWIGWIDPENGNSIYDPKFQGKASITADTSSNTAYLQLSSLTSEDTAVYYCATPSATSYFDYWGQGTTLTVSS VL: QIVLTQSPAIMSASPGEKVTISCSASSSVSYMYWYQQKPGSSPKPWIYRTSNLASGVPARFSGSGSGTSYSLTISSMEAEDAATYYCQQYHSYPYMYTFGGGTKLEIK
93.3%

What value of percent blocking has been reported for the following binder? 1035224 (antibody, V domains shown) VH: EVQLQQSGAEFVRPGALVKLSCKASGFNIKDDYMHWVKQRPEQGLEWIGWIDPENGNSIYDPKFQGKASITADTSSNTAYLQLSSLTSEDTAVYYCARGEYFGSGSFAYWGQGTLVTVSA VL: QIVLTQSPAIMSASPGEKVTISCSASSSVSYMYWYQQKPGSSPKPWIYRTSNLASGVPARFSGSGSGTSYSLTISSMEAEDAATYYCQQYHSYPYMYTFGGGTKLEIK
86.6%

What value of percent blocking has been reported for the following binder? 1035433 (antibody, V domains shown) VH: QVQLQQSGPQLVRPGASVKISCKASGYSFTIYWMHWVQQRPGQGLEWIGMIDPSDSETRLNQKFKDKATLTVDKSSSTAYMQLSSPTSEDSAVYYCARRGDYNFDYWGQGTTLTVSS VL: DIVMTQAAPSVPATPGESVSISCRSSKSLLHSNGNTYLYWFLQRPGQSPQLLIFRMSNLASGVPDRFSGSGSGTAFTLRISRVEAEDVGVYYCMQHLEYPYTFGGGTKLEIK
9.3%
